Each entry below carries its reported IC50.
tested on: murine splenocytes (Balb/c and C57B1/6); assay: Two-way mixed lymphocyte reaction (MLR) assay; conditions: read-out: two-way mixed lymphocyte reaction (MLR) suppression MLR, IC50; Balb/c + C57B1/6 splenocytes, 96 h, [3H]thymidine;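 note: proliferation read as tritiated thymidine incorporation into newly made DNA after an overnight pulse, expressed as percent of control activity, IC50 interpolated per compound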
Numbered stars: 1 amine (or outer) side, 2 acyl side, 3 side chain; on linkers, the order of the positions; unused ones are H or OH. Bridge positions count the residues as written; N and C are the ends. Square brackets hold non-standard residues; d marks the D form. Peptide text beside a SMILES is read from it. * marks the point of attachment. X1 = CC[C@H](C)[C@@H](N[*:1])[C@@H](O)CC(=O)O[C@H](C(=O)[C@H](C)C(=O)[*:2])C(C)C; X3 = CC[C@H](C)[C@H](N[*:1])[C@@H](O)CC(=O)O[C@H](C(=O)[C@H](C)C(=O)[*:2])C(C)C; NMeY = CN[C@@H](Cc1ccc(O)cc1)C(=O)O; dNMeL = CN[C@H](CC(C)C)C(=O)O; pGlu = O=C1CC[C@@H](C(=O)O)N1; Isobutyryl = CC(C)C(=O)*; Cbz = O=C(OCc1ccccc1)*; Lac = C[C@H](O)C(=O)O
Reply with just the number (in nM).

Take a look at these entries with their results.
{"columns": ["Compound", "Measure Unit", "IC50"],
 "data": [
  ["CC[C@H](C)[C@H]1NC(=O)[C@@H](NC(=O)[C@@H](CC(C)C)N(C)C(=O)[C@H]2CCCN2C(=O)C(C)C)[C@@H](C)OC(=O)[C@H](Cc2ccc(OC)cc2)N(C)C(=O)[C@@H]2CCCN2C(=O)[C@H](CC(C)C)NC(=O)[C@@H](C)C(=O)[C@H](C(C)C)OC(=O)C[C@@H]1O [Compound 34, [Isobutyryl^9, D-Pro^8] Didemnin B] (Isobutyryl-[dP][dNMeL]T[X1]LP[NMeY](Me); ester 3-C)", "nM", 0.6],
  ["CC[C@H](C)[C@H]1NC(=O)[C@@H](NC(=O)[C@@H](CC(C)C)N(C)C(=O)[C@@H]2CCCN2C(=O)[C@H](C)OC(=O)[C@@H]2CCC(=O)N2)[C@@H](C)OC(=O)[C@H](Cc2ccc(OC)cc2)N(C)C(=O)[C@@H]2CCCN2C(=O)[C@H](CC(C)C)NC(=O)[C@@H](C)C(=O)[C@H](C(C)C)OC(=O)C[C@@H]1O [Compound 37, O-Pyroglutamyldidemnin B] ([pGlu][Lac]P[dNMeL]T[X1]LP[NMeY](Me); ester 5-C)", "nM", 0.0053]
]}

Turning now to a further record.
-- ask Need IC50, item CC[C@H](C)[C@@H]1NC(=O)[C@@H](NC(=O)[C@@H](CC(C)C)N(C)C(=O)OCc2ccccc2)[C@@H](C)OC(=O)[C@H](Cc2ccc(OC)cc2)N(C)C(=O)[C@@H]2CCCN2C(=O)[C@H](CC(C)C)NC(=O)[C@@H](C)C(=O)[C@H](C(C)C)OC(=O)C[C@@H]1O [Compound 6, Z-[(3S,4S,5S)-Ist^2]Didemnin A] (Cbz-[dNMeL]T[X3]LP[NMeY](Me); ester 2-C)
-- reply 270
